Cited source: patent US20090062397A1

- Assay: Solubility of FFC in aqueous Beta-CD/PEG-300 systems
- Type: physicochemical
- Setup conditions: aqueous beta-cyclodextrin/PEG-300 system, aqueous with cosolvent or surfactant or cyclodextrin, thermodynamic from solid, 50 mM beta/30% PEG-300
- Procedure: Florfenicol solubility in mixed solvents, such as water/PEG-300, and florfenicol complexes with beta cyclodextrin were evaluated by solubility studies using High Performance Liquid Chromatography (HPLC). The HPLC system consisted of a Waters Alliance Separation Module equipped with a Waters 2996 Photodiode Array Detector interfaced with Millennium Chromatography manager data software. […] Binding constants were calculated using the Higuchi Connors method from solubility study plots. […]
Experimental endpoint: solubility (mg/mL)

compound="CS(=O)(=O)c1ccc([C@@H](O)[C@@H](CF)NC(=O)C(Cl)Cl)cc1 (relative stereo)" experimental_endpoint=solubility units=mg/mL quantitative_readout=14.4
